Measurement Protocol: MTT cell viability assay, compounds at 5, 1 and 0.2 μM, 48 hours
Format: cell-based
Experimental Context: human, A549 tumor cells, 5 μM
Recorded viability at 48 h, 5 µM by entry

Compound	viability at 48 h, 5 µM
Nc1cc(Oc2cccc(-c3nnc(Nc4cccc(C(F)(F)F)c4)[nH]3)c2)c2ccccc2n1 [Compound 86]	> 70%
CSc1nc(N)cc(Oc2cccc(-c3nnc(Nc4ccc(F)c(C(F)(F)F)c4)[nH]3)c2)n1 [Compound 106]	> 70%
CC(C)(C)Sc1cc(Oc2ccc(-c3nnc(Nc4cccc(C(F)(F)F)c4)[nH]3)cc2)nc(N)n1 [Compound 141]	< 50%
CSc1nc(N)cc(Oc2ccc(-c3nnc(NC4CCCCC4)[nH]3)cc2)n1 [Compound 155]	< 50%

----------
Recorded viability at 48 h, 5 µM by entry
Measurement Protocol: MTT cell viability assay, compounds at 5, 1 and 0.2 μM, 48 hours
Type: cell-based
Experimental Context: human, A549 tumor cells, 5 μM

Chemical String	viability at 48 h, 5 µM
FC(F)(F)c1cccc(Nc2nnc(-c3cccc(Oc4ccnc5cc(OCc6ccccc6)ccc45)c3)[nH]2)c1	> 70%
Fc1ccc2c(Oc3ccc(-c4nnc(Nc5cccc(C(F)(F)F)c5)[nH]4)cc3)ccnc2c1	> 70%
COc1cc2ncnc(Oc3ccc(-c4nnc(Nc5cccc(C(F)(F)F)c5)[nH]4)cc3)c2cc1OC	50 to 70%
COc1cc(Oc2cccc(-c3nnc(Nc4cccc(C(F)(F)F)c4)[nH]3)c2)ccn1	> 70%
COc1cc(Oc2cccc(-c3nnc(Nc4cccc(C(F)(F)F)c4)[nH]3)c2)ncn1	50 to 70%
FC(F)(F)c1cccc(Nc2nnc(-c3ccc(Oc4ccncc4)c(Cl)c3)[nH]2)c1	50 to 70%
CSc1nc(N)cc(Oc2ccc(-c3nnc(Nc4cc(C(C)(C)C)on4)[nH]3)cc2)n1	> 70%
COCCOc1cc(Oc2cccc(-c3nnc(Nc4cccc(C(F)(F)F)c4)[nH]3)c2)nc(N)n1	> 70%

----------
Measurement Protocol: MTT cell viability assay, compounds at 5, 1 and 0.2 μM, 48 hours
Type: cell-based
Experimental Context: human, A549 tumor cells, 5 μM
Recorded viability at 48 h, 5 µM by entry

Compound	viability at 48 h, 5 µM
FC(F)(F)c1cccc(Nc2nnc(-c3ccc(Oc4ncnc5[nH]ccc45)cc3)o2)c1 [Compound 32]	> 70%
Cc1nccc(Oc2cccc(-c3nnc(Nc4cccc(C(F)(F)F)c4)[nH]3)c2)n1 [Compound 55]	< 50%
CSc1nc(N)cc(Oc2ccc(-c3nnc(Nc4cccc(C)c4C)[nH]3)cc2)n1 [Compound 126]	< 50%
CSc1nc(Oc2cccc(-c3nnc(Nc4cccc(C(F)(F)F)c4)[nH]3)c2)c2cc[nH]c2n1 [Compound 56]	> 70%

----------
Measurement Protocol: MTT cell viability assay, compounds at 5, 1 and 0.2 μM, 48 hours
Format: cell-based
Experimental Context: human, A549 tumor cells, 5 μM
Measured Quantity: viability at 48 h, 5 µM

Chemical String	Observed Measurement
CSc1nc(N)cc(Oc2ccc(-c3nnc(Nc4cccc(C#N)c4)[nH]3)cc2)n1	> 70%
FC(F)(F)c1cccc(Nc2nnc(-c3ccc(Oc4ccnc(Cl)c4)cc3)[nH]2)c1	< 50%
Nc1cc(Oc2ccc(-c3nnc(Nc4cccc(C(F)(F)F)c4)s3)cc2)nc(N)n1	> 70%
Cc1ccc2nccc(Oc3ccc(-c4nnc(Nc5cccc(C(F)(F)F)c5)[nH]4)cc3)c2c1	> 70%
CSc1nc(N)cc(Oc2ccc(-c3nnc(Nc4cccc(C(F)(F)F)c4)[nH]3)cc2C)n1	> 70%
FC(F)(F)c1cccc(Nc2nnc(-c3cccc(Oc4ccncc4)c3)o2)c1	> 70%
Nc1cc(F)cc(Oc2ccc(-c3nnc(Nc4cccc(C(F)(F)F)c4)[nH]3)cc2)c1	50 to 70%
Fc1ccc2c(Oc3cccc(-c4nnc(Nc5cccc(C(F)(F)F)c5)[nH]4)c3)ccnc2c1	> 70%
CSc1nc(N)cc(Oc2cccc(-c3nnc(Nc4cccc(C(F)(F)F)c4)[nH]3)c2)n1	50 to 70%
COc1ccc2nccc(Oc3cccc(-c4nnc(Nc5cccc(C(F)(F)F)c5)[nH]4)c3)c2c1	> 70%
FC(F)(F)c1cccc(Nc2nnc(-c3cccc(Oc4ccncc4C(F)(F)F)c3)o2)c1	> 70%
Cc1nc(N)cc(Oc2ccc(-c3nnc(Nc4cccc(C(F)(F)F)c4)[nH]3)cc2)n1	50 to 70%
FC(F)(F)c1cccc(Nc2nnc(-c3ccc(Oc4cc(Cl)ccn4)cc3)[nH]2)c1	> 70%
CSc1nc(N)cc(Oc2ccc(-c3nnc(Nc4cc(C(C)(C)C)nn4-c4cccc(C)c4)[nH]3)cc2)n1	> 70%
FC(F)(F)c1cccc(Nc2nnc(-c3ccc(Oc4ccnc5[nH]ccc45)cc3)[nH]2)c1	< 50%
COc1ccc2c(Oc3cccc(-c4nnc(Nc5cccc(C(F)(F)F)c5)[nH]4)c3)ccnc2c1	> 70%

----------
Measurement Protocol: MTT cell viability assay, compounds at 5, 1 and 0.2 μM, 48 hours
Type: cell-based
Experimental Context: human, A549 tumor cells, 0.2 μM
Measured Quantity: viability at 48 h, 0.2 µM

Compound	Measured Quantity	Observed Measurement
CCCNc1cc(Oc2ccc(-c3nnc(Nc4cccc(C(F)(F)F)c4)[nH]3)cc2)nc(SC)n1 [Compound 144]	viability at 48 h, 0.2 µM	> 70%
O=c1cc(COc2ccc(-c3nnc(Nc4cccc(C(F)(F)F)c4)[nH]3)cc2)c2ccccc2[nH]1 [Compound 161]	viability at 48 h, 0.2 µM	> 70%
FC(F)(F)c1cccc(Nc2nnc(-c3cccc(Oc4ccncc4)c3)[nH]2)c1 [Compound 17]	viability at 48 h, 0.2 µM	> 70%
Nc1cc(Oc2ccc(-c3nnc(Nc4cccc(C(F)(F)F)c4)[nH]3)cc2)ncn1 [Compound 2]	viability at 48 h, 0.2 µM	> 70%
Nc1cc(Oc2cccc(-c3nnc(Nc4cccc(C(F)(F)F)c4)[nH]3)c2)c2ccccc2n1 [Compound 86]	viability at 48 h, 0.2 µM	> 70%
FC(F)(F)c1cccc(Nc2nnc(-c3ccc(Oc4ncnc5[nH]ccc45)cc3)o2)c1 [Compound 32]	viability at 48 h, 0.2 µM	> 70%
CSc1nc(N)cc(Oc2ccc(-c3nnc(Nc4cccc(C(F)(F)F)c4)[nH]3)cc2Cl)n1 [Compound 104]	viability at 48 h, 0.2 µM	> 70%
FC(F)(F)c1cccc(Nc2nnc(-c3cccc(Oc4nccc5ccccc45)c3)[nH]2)c1 [Compound 166]	viability at 48 h, 0.2 µM	> 70%
CSc1nc(N)cc(Oc2ccc(-c3nnc(Nc4cccc(CC#N)c4)[nH]3)cc2)n1 [Compound 130]	viability at 48 h, 0.2 µM	> 70%
COc1ccc(Nc2nnc(-c3cccc(C(F)(F)F)c3)[nH]2)cc1 [Compound 183]	viability at 48 h, 0.2 µM	> 70%
FC(F)(F)c1cccc(Nc2nnc(-c3cccc(Oc4ccncc4)c3)o2)c1 [Compound 37]	viability at 48 h, 0.2 µM	> 70%
Nc1cc(Oc2ccc(-c3nnc(Nc4cccc(C(F)(F)F)c4)o3)cc2)ccn1 [Compound 59]	viability at 48 h, 0.2 µM	> 70%
Oc1ccc(Nc2nnc(-c3cccc(Cl)c3)[nH]2)cc1 [Compound 182]	viability at 48 h, 0.2 µM	> 70%
CSc1nc(N)cc(Oc2ccc(-c3nnc(Nc4cc(C(C)(C)C)nn4-c4cccc(C)c4)[nH]3)cc2)n1 [Compound 139]	viability at 48 h, 0.2 µM	> 70%
FC(F)(F)c1cccc(Nc2nnc(-c3cccc(Oc4cncc5ccccc45)c3)[nH]2)c1 [Compound 164]	viability at 48 h, 0.2 µM	> 70%
FC(F)(F)c1cccc(Nc2nnc(-c3ccc(Oc4ccnc5ccccc45)cc3)s2)c1 [Compound 47]	viability at 48 h, 0.2 µM	> 70%
O=c1cc(COc2cccc(-c3nnc(Nc4cccc(C(F)(F)F)c4)[nH]3)c2)c2ccccc2[nH]1 [Compound 171]	viability at 48 h, 0.2 µM	> 70%
Cc1nc(N)cc(Oc2cccc(-c3nnc(Nc4cccc(C(F)(F)F)c4)[nH]3)c2)n1 [Compound 100]	viability at 48 h, 0.2 µM	> 70%
COc1nc(Oc2ccc(-c3nnc(Nc4cccc(C(F)(F)F)c4)[nH]3)cc2)c2cc[nH]c2n1 [Compound 75]	viability at 48 h, 0.2 µM	> 70%
Cc1ccc(-c2nnc(Nc3cccc(C(F)(F)F)c3)[nH]2)cc1Oc1ccncc1 [Compound 178]	viability at 48 h, 0.2 µM	50 to 70%
FC(F)(F)c1cccc(Nc2nnc(-c3ccc(Oc4nccc5ccccc45)cc3)[nH]2)c1 [Compound 149]	viability at 48 h, 0.2 µM	> 70%
Nc1nccc(Oc2ccc(-c3nnc(Nc4cccc(C(F)(F)F)c4)[nH]3)cc2)n1 [Compound 1]	viability at 48 h, 0.2 µM	> 70%
NS(=O)(=O)c1cnccc1Oc1ccc(-c2nnc(Nc3cccc(C(F)(F)F)c3)o2)cc1 [Compound 31]	viability at 48 h, 0.2 µM	> 70%
COc1ccc2nccc(Oc3ccc(-c4nnc(Nc5cccc(C(F)(F)F)c5)[nH]4)cc3)c2c1 [Compound 185]	viability at 48 h, 0.2 µM	> 70%
CCc1nc(N)cc(Oc2ccc(-c3nnc(Nc4cccc(C(F)(F)F)c4)[nH]3)cc2)n1 [Compound 81]	viability at 48 h, 0.2 µM	> 70%
COc1cc(-c2nnc(Nc3cccc(C(F)(F)F)c3)[nH]2)ccc1Oc1cc(N)nc(SC)n1 [Compound 109]	viability at 48 h, 0.2 µM	> 70%
Nc1cc(Oc2cccc(-c3nnc(Nc4cccc(C(F)(F)F)c4)o3)c2)ccn1 [Compound 38]	viability at 48 h, 0.2 µM	> 70%
Cc1cc(Oc2ccc(-c3nnc(Nc4cccc(C(F)(F)F)c4)[nH]3)cc2)ccn1 [Compound 74]	viability at 48 h, 0.2 µM	> 70%
CCOc1cc(Oc2ccc(-c3nnc(Nc4cccc(C(F)(F)F)c4)[nH]3)cc2)nc(N)n1 [Compound 52]	viability at 48 h, 0.2 µM	> 70%
COc1cc(Oc2ccc(-c3nnc(Nc4cccc(C(F)(F)F)c4)[nH]3)cc2)ccn1 [Compound 73]	viability at 48 h, 0.2 µM	> 70%
Nc1cc(Oc2ccc(-c3nnc(Nc4cccc(C(F)(F)F)c4)[nH]3)cc2)c2ccccc2n1 [Compound 69]	viability at 48 h, 0.2 µM	> 70%
Cc1nccc(Oc2cccc(-c3nnc(Nc4cccc(C(F)(F)F)c4)[nH]3)c2)n1 [Compound 55]	viability at 48 h, 0.2 µM	50 to 70%
